Experiment: Plasma pharmacokinetics of minocycline, twice-daily ascending dose (MAD) phase, loading dose then BID dosing for 7 days
Parameters: species or system human (healthy adult subjects)
Conditions: human, in vivo, iv, 300 mg, Cmax
Protocol: This example describes outcomes among healthy adult subjects in a randomized, double-blind, placebo-controlled, single- and multiple ascending dose (SAD/MAD) study of 6 intravenous doses (cohorts) ranging from 100 mg to 600 mg of minocycline. […] Within each cohort, subjects received a single dose on Day 1, followed by a loading dose on Day 4, then 7 days of twice-daily dosing (Days 4-10), followed by a single dose on Day 11 as shown in Table 1. […]
recordedEndpoint: Cmax (ng/mL)
Numbers only, in ng/mL.

The compound identified as CN(C)c1ccc(O)c2c1C[C@H]1C[C@H]3[C@H](N(C)C)C(O)=C(C(N)=O)C(=O)[C@@]3(O)C(O)=C1C2=O registered its Cmax at 8910

###

Test: Plasma pharmacokinetics of minocycline, single ascending dose (SAD) phase, 1 hour intravenous infusion
Design: species or system human (healthy adult subjects)
Details: human, in vivo; single 500 mg IV dose, mean, N=8
recordedEndpoint: half-life
Put down the number, then write its unit next to it.

The compound identified as CN(C)c1ccc(O)c2c1C[C@H]1C[C@H]3[C@H](N(C)C)C(O)=C(C(N)=O)C(=O)[C@@]3(O)C(O)=C1C2=O registered its half-life at 14.4 h

###

Assay: Plasma pharmacokinetics of minocycline, single ascending dose (SAD) phase, 1 hour intravenous infusion
Set-up: species or system human (healthy adult subjects)
Conditions: human, in vivo, iv, 100 mg
recordedEndpoint: clearance (mL/min)
One number for each entry, in mL/min.

The molecule identified as CN(C)c1ccc(O)c2c1C[C@H]1C[C@H]3[C@H](N(C)C)C(O)=C(C(N)=O)C(=O)[C@@]3(O)C(O)=C1C2=O registered its clearance at 175

###

Assay: Plasma pharmacokinetics of minocycline, single ascending dose (SAD) phase, 1 hour intravenous infusion
Parameters: species or system human (healthy adult subjects)
Details: human, in vivo, iv, 300 mg
recordedEndpoint: clearance (mL/min)
One number for each entry, in mL/min.

The compound identified as CN(C)c1ccc(O)c2c1C[C@H]1C[C@H]3[C@H](N(C)C)C(O)=C(C(N)=O)C(=O)[C@@]3(O)C(O)=C1C2=O registered its clearance at 138

###

Experiment: Plasma pharmacokinetics of minocycline, single ascending dose (SAD) phase, 1 hour intravenous infusion
Design: species or system human (healthy adult subjects)
Conditions: human, in vivo, iv, 400 mg
recordedEndpoint: clearance (mL/min)
Give bare numbers, in mL/min.

The compound identified as CN(C)c1ccc(O)c2c1C[C@H]1C[C@H]3[C@H](N(C)C)C(O)=C(C(N)=O)C(=O)[C@@]3(O)C(O)=C1C2=O [minocycline] registered its clearance at 112

###

Assay: Plasma pharmacokinetics of minocycline, single ascending dose (SAD) phase, 1 hour intravenous infusion
Design: species or system human (healthy adult subjects)
Settings: human, in vivo, iv, 600 mg
recordedEndpoint: clearance (mL/min)
One number for each entry, in mL/min.

The compound identified as CN(C)c1ccc(O)c2c1C[C@H]1C[C@H]3[C@H](N(C)C)C(O)=C(C(N)=O)C(=O)[C@@]3(O)C(O)=C1C2=O registered its clearance at 135

###

Test: Plasma pharmacokinetics of minocycline, single ascending dose (SAD) phase, 1 hour intravenous infusion
Design: species or system human (healthy adult subjects)
Details: human, in vivo, iv, 400 mg
recordedEndpoint: AUC(0-inf) (ng·h/mL)
Numbers only, in ng·h/mL.

The compound identified as CN(C)c1ccc(O)c2c1C[C@H]1C[C@H]3[C@H](N(C)C)C(O)=C(C(N)=O)C(=O)[C@@]3(O)C(O)=C1C2=O [minocycline] registered its AUC(0-inf) at 63600

###

Experiment: Plasma pharmacokinetics of minocycline, twice-daily ascending dose (MAD) phase, loading dose then BID dosing for 7 days
Design: species or system human (healthy adult subjects)
Settings: human, in vivo, 300 mg, AUC0-t
recordedEndpoint: AUC(0-t) (µg·h/mL)
Give bare numbers, in µg·h/mL.

The compound identified as CN(C)c1ccc(O)c2c1C[C@H]1C[C@H]3[C@H](N(C)C)C(O)=C(C(N)=O)C(=O)[C@@]3(O)C(O)=C1C2=O registered its AUC(0-t) at 174

###

Experiment: Plasma pharmacokinetics of minocycline, twice-daily ascending dose (MAD) phase, loading dose then BID dosing for 7 days
Set-up: species or system human (healthy adult subjects)
Settings: human, in vivo, 300 mg, Cl (plasma clearance)
recordedEndpoint: clearance (mL/min)
Give bare numbers, in mL/min.

The compound identified as CN(C)c1ccc(O)c2c1C[C@H]1C[C@H]3[C@H](N(C)C)C(O)=C(C(N)=O)C(=O)[C@@]3(O)C(O)=C1C2=O registered its clearance at 32

###

Assay: Plasma pharmacokinetics of minocycline, twice-daily ascending dose (MAD) phase, loading dose then BID dosing for 7 days
Design: species or system human (healthy adult subjects)
Settings: human, in vivo, 300 mg, single dose 600 mg, BID dosing 300 mg, mean, N=4
recordedEndpoint: half-life (h)
Give bare numbers, in h.

The compound identified as CN(C)c1ccc(O)c2c1C[C@H]1C[C@H]3[C@H](N(C)C)C(O)=C(C(N)=O)C(=O)[C@@]3(O)C(O)=C1C2=O registered its half-life at 20.2

###

Experiment: Plasma pharmacokinetics of minocycline, twice-daily ascending dose (MAD) phase, loading dose then BID dosing for 7 days
Design: species or system human (healthy adult subjects)
Details: human, in vivo, 300 mg, single dose 300 mg, BID dosing 300 mg, mean, N=7
recordedEndpoint: half-life (h)
Give bare numbers, in h.

The molecule identified as CN(C)c1ccc(O)c2c1C[C@H]1C[C@H]3[C@H](N(C)C)C(O)=C(C(N)=O)C(=O)[C@@]3(O)C(O)=C1C2=O registered its half-life at 19.8

###

Assay: Plasma pharmacokinetics of minocycline, single ascending dose (SAD) phase, 1 hour intravenous infusion
Set-up: species or system human (healthy adult subjects)
Conditions: human, in vivo, iv, 200 mg
recordedEndpoint: AUC(0-inf) (ng·h/mL)
Numbers only, in ng·h/mL.

The molecule identified as CN(C)c1ccc(O)c2c1C[C@H]1C[C@H]3[C@H](N(C)C)C(O)=C(C(N)=O)C(=O)[C@@]3(O)C(O)=C1C2=O [minocycline] registered its AUC(0-inf) at 25900

###

Assay: Plasma pharmacokinetics of minocycline, twice-daily ascending dose (MAD) phase, loading dose then BID dosing for 7 days
Design: species or system human (healthy adult subjects)
Conditions: human, in vivo, 200 mg, Cl (plasma clearance)
Protocol: This example describes outcomes among healthy adult subjects in a randomized, double-blind, placebo-controlled, single- and multiple ascending dose (SAD/MAD) study of 6 intravenous doses (cohorts) ranging from 100 mg to 600 mg of minocycline. […] Within each cohort, subjects received a single dose on Day 1, followed by a loading dose on Day 4, then 7 days of twice-daily dosing (Days 4-10), followed by a single dose on Day 11 as shown in Table 1. […]
recordedEndpoint: clearance (mL/min)
One number for each entry, in mL/min.

The compound identified as CN(C)c1ccc(O)c2c1C[C@H]1C[C@H]3[C@H](N(C)C)C(O)=C(C(N)=O)C(=O)[C@@]3(O)C(O)=C1C2=O registered its clearance at 41.3

###

Experiment: Plasma pharmacokinetics of minocycline, single ascending dose (SAD) phase, 1 hour intravenous infusion
Set-up: species or system human (healthy adult subjects)
Conditions: human, in vivo, iv, 200 mg
recordedEndpoint: clearance (mL/min)
Numbers only, in mL/min.

The compound identified as CN(C)c1ccc(O)c2c1C[C@H]1C[C@H]3[C@H](N(C)C)C(O)=C(C(N)=O)C(=O)[C@@]3(O)C(O)=C1C2=O [minocycline] registered its clearance at 137

###

Experiment: Plasma pharmacokinetics of minocycline, single ascending dose (SAD) phase, 1 hour intravenous infusion
Design: species or system human (healthy adult subjects)
Conditions: human, in vivo, iv, 500 mg
recordedEndpoint: AUC(0-inf) (ng·h/mL)
Answers are plain numbers, in ng·h/mL.

The compound identified as CN(C)c1ccc(O)c2c1C[C@H]1C[C@H]3[C@H](N(C)C)C(O)=C(C(N)=O)C(=O)[C@@]3(O)C(O)=C1C2=O registered its AUC(0-inf) at 53800

###

Test: Plasma pharmacokinetics of minocycline, twice-daily ascending dose (MAD) phase, loading dose then BID dosing for 7 days
Design: species or system human (healthy adult subjects)
Details: human, in vivo, 200 mg, single dose 200 mg, BID dosing 200 mg, mean, N=6
Method: This example describes outcomes among healthy adult subjects in a randomized, double-blind, placebo-controlled, single- and multiple ascending dose (SAD/MAD) study of 6 intravenous doses (cohorts) ranging from 100 mg to 600 mg of minocycline. […] Within each cohort, subjects received a single dose on Day 1, followed by a loading dose on Day 4, then 7 days of twice-daily dosing (Days 4-10), followed by a single dose on Day 11 as shown in Table 1. […]
recordedEndpoint: half-life (h)
One number for each entry, in h.

The compound identified as CN(C)c1ccc(O)c2c1C[C@H]1C[C@H]3[C@H](N(C)C)C(O)=C(C(N)=O)C(=O)[C@@]3(O)C(O)=C1C2=O [minocycline] registered its half-life at 18.2
